system: WPMY1-CANX-COX4; experiment: phenotypically active (imaging signature differs from DMSO and reproducible) at any of 0.3-9 uM (binary (1 = active, 0 = inactive)); higher = active; conditions: treatment time: 24 h
// values below are reported phenotypically active

MOLECULE: Cc1cc(/N=N/c2ccc(S(=O)(=O)Nc3ccccn3)cc2)c(N)cc1O
TESTED_SYSTEM: WPMY1-CANX-COX4
phenotypically active: 1 (active)

MOLECULE: COc1cc([C@@H]2c3cc4c(cc3[C@@H](O[C@@H]3O[C@@H]5CO[C@@H](C)O[C@H]5[C@H](O)[C@H]3O)[C@H]3COC(=O)[C@H]23)OCO4)cc(OC)c1O [etoposide]
TESTED_SYSTEM: WPMY1-CANX-COX4
phenotypically active: 1 (active)

MOLECULE: Cc1cc2sc(NC(=O)Cc3ccccc3)nc2cc1Cl
TESTED_SYSTEM: WPMY1-CANX-COX4
phenotypically active: 0 (inactive)

MOLECULE: CCCCC1=NC2(CCCC2)C(=O)N1Cc1ccc(-c2ccccc2-c2nnn[nH]2)cc1
TESTED_SYSTEM: WPMY1-CANX-COX4
phenotypically active: 0 (inactive)

MOLECULE: Cn1c(=O)c2nc[nH]c2n(C)c1=O
TESTED_SYSTEM: WPMY1-CANX-COX4
phenotypically active: 0 (inactive)

Asked: Which phenotypically active reading was recorded for the molecule `NCCCC[C@H](N[C@@H](CCc1ccccc1)C(=O)O)C(=O)N1CCC[C@H]1C(=O)O` ?
Given back: 0 (inactive)

Asked: Which phenotypically active reading was recorded for the molecule CC(=O)NCCCS(=O)(=O)O [acamprosate] ?
Given back: 0 (inactive)

Asked: Which phenotypically active reading was recorded for the molecule `Cc1cc(C(C)(C)C)c(O)c(C)c1CC1=NCCN1` ?
Given back: 0 (inactive)

Asked: Which phenotypically active reading was recorded for the molecule `Cc1ccc(NC2=CC(=O)c3sc(C)nc3C2=O)cc1` ?
Given back: 1 (active)

Asked: Which phenotypically active reading was recorded for the molecule `CCc1cccc(CC)c1NC(=O)N1Cc2[nH]nc(NC(=O)c3ccc(N4CCN(C)CC4)cc3)c2C1` ?
Given back: 1 (active)
